Reference source: the RepoRT retention time repository

experiment-description: Agilent ZORBAX 300 SB-C18, 150 × 1 mm, 3.5 µm; A: water + 0.01% heptafluorobutyric acid; B: acetonitrile + 0.01% heptafluorobutyric acid; gradient (min/%B) 0/0 100/90
test-settings: stereoisomer not certain
outcome-measure: LC retention time (min)

P: O=C(O)c1ccc2c(c1)C1C=CCC1C(c1cccc3ccccc13)N2 (stereo not drawn)
Q: CCCCN(CC)CC
Between P and Q , whose measured LC retention time reads higher? Write down the label attached to your selection.
P

----------
experiment-description: Agilent ZORBAX 300 SB-C18, 150 × 1 mm, 3.5 µm; A: water + 0.01% heptafluorobutyric acid; B: acetonitrile + 0.01% heptafluorobutyric acid; gradient (min/%B) 0/0 100/90
test-settings: stereoisomer not certain
outcome-measure: LC retention time (min)

Example results:
- compound: "COc1ccc2cc3[n+](cc2c1OC)CCc1cc2c(cc1-3)OCO2"
  LC retention time [min]: 10.6
- compound: "CC(N)CN(C)C (stereo unspecified)"
  LC retention time [min]: 6.58
- compound: "NC(=O)Nc1ccccc1"
  LC retention time [min]: 7.26

I: CC(=NNc1ccccc1)C1=C(C)NC(=O)NC1c1ccccc1 (stereo unspecified)
II: CCc1ccc(C(=O)CC(Nc2ccccc2)c2ccccc2)cc1 (stereo unspecified)
// which entry reports the smaller LC retention time, I or II ? Write down the label attached to your selection.
I
(I: 10.8 min, II: 18.4 min)

P: CCN(CC)C(=O)c1cc(NC(=O)c2ccc3c(c2)c(=O)n(C)c(=O)n3C)c(OC)c(OC)c1
Q: O=C(Cn1ccc(=O)[nH]c1=O)NCCO
// which entry reports the smaller LC retention time, P or Q ? Write down the label attached to your selection.
Q

P: CCn1c2ccccc2c2cc(CNC)ccc21
Q: CCCOC(=O)c1ccc(NC(=O)c2ccc(C)cc2)cc1
Between P and Q , whose measured LC retention time reads higher? Write down the label attached to your selection.
Q
